Parameter: viability at 10 µM. Scope: all listed entries.
Assay: Cytotoxicity against mouse HT22 cells assessed as cell viability at 10 uM by MTT assay relative to control
Assay type: cell-based, HT-22
Settings: read-out: Activity

Line Notation: COc1cc(-c2cc3cc(/C=C/C(=O)O)cc(OC)c3o2)ccc1N(C)C
viability at 10 µM: 104%
//
Line Notation: CN(C)c1ccc(-c2cc3cc(/C=C/C(=O)O)cc(O)c3o2)cc1F
viability at 10 µM: 111%
//
Line Notation: COc1cc(-c2cc3cc(/C=C/C(=O)O)cc(O)c3o2)ccc1O
viability at 10 µM: 105%
//
Line Notation: COc1ccc(-c2cc3cc(/C=C/C(=O)O)cc(O)c3o2)cc1O
viability at 10 µM: 104%
//
Line Notation: CN(C)c1ccc(-c2cc3cc(/C=C/C(=O)O)cc(O)c3o2)cc1
viability at 10 µM: 100%
//
Line Notation: COc1cc(/C=C/C(=O)O)cc2cc(-c3ccc(N(C)C)cc3)oc12
viability at 10 µM: 93.3%
//
Line Notation: COc1cc(-c2cc3cc(/C=C/C(=O)O)cc(O)c3o2)ccc1N(C)C
viability at 10 µM: 102%
//
Line Notation: COc1cc(/C=C/C(=O)O)cc2cc(-c3ccc(N(C)C)c(F)c3)oc12
viability at 10 µM: 102%
